- Test system: HepG2 cells
- testDetails: Cytotoxicity using MTT assay, HepG2
- Format: cell-based
- protocolConditions: 48 h, read-out: IC50 cytotoxicity against HepG2
measuredMetric: IC50 (µM)
Express your answer in µM, writing the number without its unit.

COC(=O)C(CCSC)NC(=O)CCNC(=O)c1cc2ccccc2oc1=O (centres unmarked) [6c] ... 33.8

Now for another entry.
Data request, read-out IC50, for COC(=O)C(Cc1ccc(O)cc1)NC(=O)c1cc2ccccc2oc1=O (centres unmarked) [4k] 9.44

====

melting point values for the compounds below.

Data request, read-out melting point, for COC(=O)C(NC(=O)C(NC(=O)c1cc2ccccc2oc1=O)C(C)C)C(C)C (stereo not shown) 97 to 99 °C

COC(=O)[C@H](CCSC)NC(=O)c1cc2ccccc2oc1=O , same question. 81 to 83 °C

====

Where a name gives a salt, the structure may show the parent alone.
melting point values for the compounds below.

As a guide, the following entries are already answered.
O=C(O)CCNC(=O)c1cc2ccccc2oc1=O ... 195 to 197 °C
COC(=O)[C@H](CC(C)C)NC(=O)c1cc2ccccc2oc1=O ... 95 to 97 °C
COC(=O)C[C@H](NC(=O)c1cc2ccccc2oc1=O)C(=O)OC (as salt: succinate) ... 69 to 71 °C
COC(=O)CCNC(=O)C(CCSC)NC(=O)c1cc2ccccc2oc1=O (centres unmarked) ... 104 to 105 °C
COC(=O)C(NC(=O)c1cc2ccccc2oc1=O)C(C)C (centres unmarked) ... 75 to 77 °C

Data request, read-out melting point, for COC(=O)[C@H](CCSC)NC(=O)[C@@H](NC(=O)c1cc2ccccc2oc1=O)C(C)C 100 to 101 °C

COC(=O)CCNC(=O)c1cc2ccccc2oc1=O , same question. 135 to 137 °C

COC(=O)CCNC(=O)CCNC(=O)c1cc2ccccc2oc1=O , same question. 127 to 128 °C

COC(=O)CNC(=O)c1cc2ccccc2oc1=O (as salt: hydrochloride) , same question. 173 to 175 °C

CSCCC(NC(=O)c1cc2ccccc2oc1=O)C(=O)O (centres unmarked) , same question. 108 to 109 °C

CC(C)C(NC(=O)c1cc2ccccc2oc1=O)C(=O)O (centres unmarked) , same question. 210 to 212 °C

COC(=O)C(NC(=O)c1cc2ccccc2oc1=O)c1ccccc1 (centres unmarked) , same question. 189 to 192 °C

COC(=O)C(CCSC)NC(=O)C(CCSC)NC(=O)c1cc2ccccc2oc1=O (centres unmarked) , same question. 109 to 111 °C

COC(=O)C(Cc1c[nH]c2ccccc12)NC(=O)c1cc2ccccc2oc1=O (centres unmarked) , same question. 138 to 139 °C

COC(=O)C(NC(=O)CCNC(=O)c1cc2ccccc2oc1=O)C(C)C (centres unmarked) , same question. 101 to 103 °C

COC(=O)C(CO)NC(=O)c1cc2ccccc2oc1=O (centres unmarked) , same question. 177 to 179 °C

COC(=O)CC[C@H](NC(=O)c1cc2ccccc2oc1=O)C(=O)OC , same question. 64 to 66 °C

COC(=O)CCNC(=O)C(NC(=O)c1cc2ccccc2oc1=O)C(C)C (centres unmarked) , same question. 149 to 151 °C

COC(=O)C(NC(=O)C(CCSC)NC(=O)c1cc2ccccc2oc1=O)C(C)C (centres unmarked) , same question. 98 to 99 °C

COC(=O)[C@H](C)NC(=O)c1cc2ccccc2oc1=O , same question. 104 to 106 °C
